- System: carrageenan edema
- Test summary: carrageenan edema inhibiting effect of betamethasone valerate ointments
- Assay type: in vivo, rat
- Run conditions: 3 hrs; Table 5, betamethasone valerate ointment with penetration enhancer
Attribute measured: Percentage inhibition vs. control (%)
Numeric only. Scale: %

Missing value: Percentage inhibition vs. control, carrageenan edema, entry CCCCCCCC=CCCCCCCCCOCC(COC(=O)[C@@H]1CCC(=O)N1)OCCCCCCCCC=CCCCCCCC (some centres unmarked) [Compound (142)] . Fill in?
16.5

I'm curious: which Percentage inhibition vs. control was measured for CCCCCCCCCCC=CCCCCCCCCCC(=O)OCC(O)COC(=O)[C@@H]1CCC(=O)N1 (some centres unmarked) [Compound (192)] tested on carrageenan edema?
19.5

Which measured Percentage inhibition vs. control belongs to CCCCC(=O)OCC(O)COC(=O)[C@@H]1CCC(=O)N1 (some centres unmarked) [Compound (156)] , tested on carrageenan edema?
18.6

Form entry - test system: carrageenan edema; read-out: Percentage inhibition vs. control; molecule: CC1(C)OCC(COC(=O)C2CCC(=O)N2)O1 (centres unmarked) [Compound (202)]
17.7
